pIC50 values for the compounds below.
Target: UniProt Q13873
Sequence (Q13873 whole entry): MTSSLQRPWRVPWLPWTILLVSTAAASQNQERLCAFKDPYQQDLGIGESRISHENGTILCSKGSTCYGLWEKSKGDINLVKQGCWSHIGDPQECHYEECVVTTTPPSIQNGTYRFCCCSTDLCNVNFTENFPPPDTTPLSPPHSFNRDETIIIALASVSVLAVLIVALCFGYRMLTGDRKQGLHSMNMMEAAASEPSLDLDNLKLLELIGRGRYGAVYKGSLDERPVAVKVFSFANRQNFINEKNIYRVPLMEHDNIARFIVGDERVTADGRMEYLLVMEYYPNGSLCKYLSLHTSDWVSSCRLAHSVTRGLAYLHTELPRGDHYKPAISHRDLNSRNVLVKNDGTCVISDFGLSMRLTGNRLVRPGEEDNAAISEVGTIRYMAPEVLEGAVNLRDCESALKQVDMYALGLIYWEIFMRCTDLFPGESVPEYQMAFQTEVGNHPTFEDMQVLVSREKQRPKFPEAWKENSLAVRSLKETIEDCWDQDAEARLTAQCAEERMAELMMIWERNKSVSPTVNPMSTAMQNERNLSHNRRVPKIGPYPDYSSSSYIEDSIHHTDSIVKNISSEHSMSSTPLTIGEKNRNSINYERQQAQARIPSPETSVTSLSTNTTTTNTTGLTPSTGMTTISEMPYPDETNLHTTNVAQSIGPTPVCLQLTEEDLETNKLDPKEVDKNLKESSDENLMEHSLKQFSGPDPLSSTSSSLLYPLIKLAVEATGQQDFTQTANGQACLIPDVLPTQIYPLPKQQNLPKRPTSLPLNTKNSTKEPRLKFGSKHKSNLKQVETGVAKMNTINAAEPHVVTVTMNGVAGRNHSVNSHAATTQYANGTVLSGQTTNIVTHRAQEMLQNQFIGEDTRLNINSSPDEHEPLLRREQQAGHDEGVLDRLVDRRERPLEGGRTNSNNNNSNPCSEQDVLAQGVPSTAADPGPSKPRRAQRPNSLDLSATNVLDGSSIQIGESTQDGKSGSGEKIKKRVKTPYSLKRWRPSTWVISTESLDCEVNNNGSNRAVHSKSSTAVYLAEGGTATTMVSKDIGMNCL
Test: BMPR2(BMR2LGN1) Takeda global kinase panel
pIC50: −log10 of the molar value.

[
  {
    "Compound": "CN1C(=O)[C@@H](N2CCc3cn(Cc4ccccc4)nc3C2=O)COc2ccccc21 [TP-030-1]",
    "pIC50": 6.00
  },
  {
    "Compound": "CN1C(=O)[C@@H](N2CCc3cn(CC4CCS(=O)(=O)CC4)nc3C2=O)COc2ccccc21 [TP-030n]",
    "pIC50": 6.00
  }
]

###

Target: Calcium/calmodulin-dependent protein kinase type IV (Homo sapiens)
Sequence (Q16566 whole entry): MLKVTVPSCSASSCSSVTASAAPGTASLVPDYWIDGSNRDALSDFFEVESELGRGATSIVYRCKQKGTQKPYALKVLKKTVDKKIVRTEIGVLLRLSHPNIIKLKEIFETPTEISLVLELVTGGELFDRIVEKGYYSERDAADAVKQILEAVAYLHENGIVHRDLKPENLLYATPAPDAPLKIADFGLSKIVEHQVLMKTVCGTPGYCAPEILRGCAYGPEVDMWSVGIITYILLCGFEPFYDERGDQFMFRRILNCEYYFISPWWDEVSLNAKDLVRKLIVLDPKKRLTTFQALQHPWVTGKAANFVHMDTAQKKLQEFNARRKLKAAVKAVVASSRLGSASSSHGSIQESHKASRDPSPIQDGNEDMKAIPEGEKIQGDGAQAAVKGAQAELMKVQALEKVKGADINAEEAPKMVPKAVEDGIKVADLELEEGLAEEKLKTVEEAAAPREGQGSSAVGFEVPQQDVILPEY
Test: CaMK4(CAM4LGY1) Takeda global kinase panel
pIC50: −log10 of the molar value.

[
  {
    "Compound": "CN1C(=O)[C@@H](N2CCc3cn(Cc4ccccc4)nc3C2=O)COc2ccccc21 [TP-030-1]",
    "pIC50": 6.00
  },
  {
    "Compound": "CN1C(=O)[C@@H](N2CCc3cn(CC4CCS(=O)(=O)CC4)nc3C2=O)COc2ccccc21 [TP-030n]",
    "pIC50": 6.00
  }
]
